- System: Fusarium culmorum (IMI 180420)
- Measurement Description: Antifungal growth inhibition microplate assay (photospectrometry)
- Format: cell-based
- Applied Conditions: Table 3: Rs-AFP2-based 9-mer split peptides; ½ PDB; duplicate
Measured Attribute: MIC (µg/mL)
Numbers only, in µg/mL.

Example substances with recorded MIC:
Substance	Assayed Target	Display Unit	MIC
Ac-ARHGSCNYV-NH2 [compound 77]	Fusarium culmorum (IMI 180420)	µg/mL	300
Ac-LEKARHGSC-NH2 [compound 74]	Fusarium culmorum (IMI 180420)	µg/mL	400
Ac-QCIRLEKAR-NH2 [compound 70]	Fusarium culmorum (IMI 180420)	µg/mL	100
Ac-CIRLEKARH-NH2 [compound 71]	Fusarium culmorum (IMI 180420)	µg/mL	100
Ac-YVFPAHKCI-NH2 [compound 84]	Fusarium culmorum (IMI 180420)	µg/mL	400

Quick request: MIC for each listed item, please.
1. Ac-RHGSCNYVF-NH2 [compound 78]
2. Ac-KARHGSCNY-NH2 [compound 76]
3. Ac-NYVFPAHKC-NH2 [compound 83]
4. Ac-CNYVFPAHK-NH2 [compound 82]

Result ::
[400, 300, 250, 100]

----------
- Test system: F culmorum
- Measurement Description: Antifungal activity of combinations of Rs-AFP and 15-mer peptides
- Format: cell-based, Fusarium culmorum
- Applied Conditions: 100 x MIC of Rs-AFP2 / MIC of Rs-AFP2/peptide combination; 15-mer peptide added at 20 μg/ml; SMF medium; BSA-coated plates; Rs-AFP2 alone = 100
Residues, ends and D or L forms follow the SMILES beside them.
Assign Relative Specific Antifungal Activity to each entry below.
Numbers only.

Quick request: Relative Specific Antifungal Activity for each listed item, please.
1. CC[C@H](C)[C@H](NC(=O)[C@H](CS)NC(=O)[C@H](CCCCN)NC(=O)[C@H](Cc1c[nH]cn1)NC(=O)[C@H](C)NC(=O)[C@@H]1CCCN1C(=O)[C@H](Cc1ccccc1)NC(=O)[C@@H](NC(=O)[C@H](Cc1ccc(O)cc1)NC(=O)[C@H](CC(N)=O)NC(C)=O)C(C)C)C(=O)N[C@@H](CS)C(=O)N[C@@H](Cc1ccc(O)cc1)C(=O)N[C@@H](Cc1ccccc1)C(=O)N1CCC[C@H]1C(=O)N[C@@H](CS)C(N)=O [Peptide 10 (Rs-AFP2 15-mer)] (Ac-NYVFPAHKCICYFPC-NH2; N-terminus and C-terminus assumed)
2. CC(=O)N[C@@H](CCC(=O)O)C(=O)N[C@@H](CCCCN)C(=O)N[C@@H](C)C(=O)N[C@@H](CCCNC(=N)N)C(=O)N[C@@H](Cc1c[nH]cn1)C(=O)NCC(=O)N[C@@H](CO)C(=O)N[C@@H](CS)C(=O)N[C@@H](CC(N)=O)C(=O)N[C@@H](Cc1ccc(O)cc1)C(=O)N[C@H](C(=O)N[C@@H](Cc1ccccc1)C(=O)N1CCC[C@H]1C(=O)N[C@@H](C)C(=O)N[C@@H](Cc1c[nH]cn1)C(N)=O)C(C)C [Peptide 8 (Rs-AFP2 15-mer)]
3. CC(=O)NCC(=O)N[C@H](C(=O)N[C@@H](Cc1c[nH]c2ccccc12)C(=O)N[C@@H](CO)C(=O)NCC(=O)N[C@H](C(=O)N[C@@H](CS)C(=O)NCC(=O)N[C@@H](CC(N)=O)C(=O)N[C@@H](CC(N)=O)C(=O)N[C@@H](CC(N)=O)C(=O)N[C@@H](C)C(=O)N[C@@H](CS)C(=O)N[C@@H](CCCCN)C(=O)N[C@@H](CC(N)=O)C(N)=O)C(C)C)[C@@H](C)O [Peptide 3 (Rs-AFP2 15-mer)] (Ac-GTWSGVCGNNNACKN-NH2; N-terminus and C-terminus assumed)
4. CC[C@H](C)[C@H](NC(=O)[C@H](CS)NC(=O)[C@H](CCC(N)=O)NC(=O)[C@H](CC(N)=O)NC(=O)[C@H](CCCCN)NC(=O)[C@H](CS)NC(=O)[C@H](C)NC(=O)[C@H](CC(N)=O)NC(=O)[C@H](CC(N)=O)NC(=O)[C@H](CC(N)=O)NC(=O)CNC(=O)[C@H](CS)NC(=O)[C@@H](NC(=O)CNC(C)=O)C(C)C)C(=O)N[C@@H](CCCNC(=N)N)C(N)=O [Peptide 4 (Rs-AFP2 15-mer)] (Ac-GVCGNNNACKNQCIR-NH2; N-terminus and C-terminus assumed)
5. CC[C@H](C)[C@H](NC(=O)[C@H](CS)NC(=O)[C@H](CCC(N)=O)NC(=O)[C@H](CC(N)=O)NC(=O)[C@H](CCCCN)NC(=O)[C@H](CS)NC(=O)[C@H](C)NC(=O)[C@H](CC(N)=O)NC(=O)[C@H](CC(N)=O)NC(=O)[C@H](CC(N)=O)NC(C)=O)C(=O)N[C@@H](CCCNC(=N)N)C(=O)N[C@@H](CC(C)C)C(=O)N[C@@H](CCC(=O)O)C(=O)N[C@@H](CCCCN)C(=O)N[C@@H](C)C(N)=O [Peptide 5 (Rs-AFP2 15-mer)] (Ac-NNNACKNQCIRLEKA-NH2; N-terminus and C-terminus assumed)
6. CC[C@H](C)[C@H](NC(=O)[C@H](CS)NC(=O)[C@H](CCCCN)NC(=O)[C@H](Cc1c[nH]cn1)NC(=O)[C@H](C)NC(=O)[C@@H]1CCCN1C(=O)[C@H](Cc1ccccc1)NC(=O)[C@@H](NC(=O)[C@H](Cc1ccc(O)cc1)NC(=O)[C@H](CC(N)=O)NC(=O)[C@H](CS)NC(=O)[C@H](CO)NC(=O)CNC(=O)[C@H](Cc1c[nH]cn1)NC(C)=O)C(C)C)C(=O)N[C@@H](CS)C(N)=O [Peptide 9 (Rs-AFP2 15-mer), HGSCNYVFPAHKCIC] (Ac-HGSCNYVFPAHKCIC-NH2; N-terminus and C-terminus assumed)
7. CC[C@H](C)[C@H](NC(=O)[C@H](CS)NC(=O)[C@H](CCC(N)=O)NC(=O)[C@H](CC(N)=O)NC(=O)[C@H](CCCCN)NC(=O)[C@H](CS)NC(C)=O)C(=O)N[C@@H](CCCNC(=N)N)C(=O)N[C@@H](CC(C)C)C(=O)N[C@@H](CCC(=O)O)C(=O)N[C@@H](CCCCN)C(=O)N[C@@H](C)C(=O)N[C@@H](CCCNC(=N)N)C(=O)N[C@@H](Cc1c[nH]cn1)C(=O)NCC(=O)N[C@@H](CO)C(N)=O [Peptide 6 (Rs-AFP2 15-mer), CKNQCIRLEKARHGS] (Ac-CKNQCIRLEKARHGS-NH2; N-terminus and C-terminus assumed)

Result ::
1: 250; 2: 470; 3: 180; 4: 180; 5: 180; 6: 450; 7: 300

Query :: What Relative Specific Antifungal Activity value was documented for this compound, CC(=O)N[C@@H](CCC(N)=O)C(=O)N[C@@H](CCCCN)C(=O)N[C@@H](CC(C)C)C(=O)N[C@@H](CS)C(=O)N[C@@H](CCC(N)=O)C(=O)N[C@@H](CCCNC(=N)N)C(=O)N1CCC[C@H]1C(=O)N[C@@H](CO)C(=O)NCC(=O)N[C@H](C(=O)N[C@@H](Cc1c[nH]c2ccccc12)C(=O)N[C@@H](CO)C(=O)NCC(=O)N[C@H](C(=O)N[C@@H](CS)C(N)=O)C(C)C)[C@@H](C)O [Peptide 1 (Rs-AFP2 15-mer)] (Ac-QKLCQRPSGTWSGVC-NH2; N-terminus and C-terminus assumed) ?
Result :: 310
